What IC50 was measured for each of the following?
Target: T1, human HHLA2-mIgG2a fusion protein (human; mouse, UniProt Q9UM44 23-344, limits assumed)
T1 construct: also called hHHLA2-mIgG2a; HHLA2-Fc
T1 sequence: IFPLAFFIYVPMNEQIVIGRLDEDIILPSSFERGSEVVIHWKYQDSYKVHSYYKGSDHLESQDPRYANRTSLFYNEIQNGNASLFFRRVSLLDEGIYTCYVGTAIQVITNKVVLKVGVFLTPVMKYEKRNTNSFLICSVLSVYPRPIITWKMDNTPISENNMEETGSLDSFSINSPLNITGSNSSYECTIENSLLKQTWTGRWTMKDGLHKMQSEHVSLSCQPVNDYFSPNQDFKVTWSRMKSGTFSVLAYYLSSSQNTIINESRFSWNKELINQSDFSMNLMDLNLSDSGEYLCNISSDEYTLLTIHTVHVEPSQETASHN
Test: flow cytometry, mAb pre-incubated with 4 ug/ml HHLA2-mIgG2a; blockade of its binding to KIR3DL3-transfected 293T cells

Illustrative cases are given below, each with its answer.
INSERT INTO results (binder, reported_measurement) VALUES
  ('anti-HHLA2 monoclonal antibody 2G2 (antibody, IgG1, V domains shown, also called 499.5.2G2.13.3.10; MHC2561) VH: EVMLVESGGGLVKPGGSLKLSCAVSGLTFSSYAMSWVRQTPEKRLEWVATISSGGSHTYYPDSVKGRFIISRDNAKNTLYLQMNSLRSEDTAMYYCTRLGRAFDYWGQGTTLTVSS VL: DIVMTQSHKFMSTSVGDRVSITCKASQDVSTAVAWYQQKPGQSPKVLIYWASTRHTGVPDRFTGSGSGTDFTLTISSVQAEDLALYYCQQDYSTPWTFGGGTKLEIK', '0.53 µg/mL'),
  ('anti-HHLA2 monoclonal antibody 6F10 (antibody, IgG1, V domains shown, also called 499.5.6F10.A4.10; MHC2557) VH: QVHLQQSAAELARPGASVKMSCKASGYTFTTYTMHWVKQRPGQGLEWIGHINPSSGYTDYNQKFKDKTTLTADKSSSTAYMQLNSLTSEDSAVYYCARHPWDSDYWGQGTTLTVSS VL: DIQMTQSPASLSASVGETVTITCRASENIDSYLAWYQQKQGRSPQLLVYAATNLADGVPSRFSGSGSGTQFSLQINRLQSEDVARYYCQHYYITPFTFGSGTKLEIA', '0.9 µg/mL');

Request: Check the records and state IC50 for anti-HHLA2 monoclonal antibody 1C8 (antibody, IgG2a, V domains shown, also called 499.5.1C8.9.12.2; MHC2564) VH: EVQLQQSGAELVQPGASVKLSCTASGFNIKDTYMHWVKQRPEQGLEWIGRIDPANGKTIFDPKFQVKATITADTSSNTVYLHLSSLTSEDTAIYYCAWLLPYYFDYWGQGTTLTVSS VL: EIVLTQSPAVMAASPGEKVTITCSVSSSISSSNLHWYQQKSGTSPKLWIYGTSNLASGVPVRFSGSGSGTSYSLTISSMEAEDAATYYCQKWSHYPLTFGAGTKLELK
Result: 1.15 µg/mL
